experimental-details: Cytotoxicity against African green monkey BGM cells assessed as decrease in cell viability after 48 hrs by MTT assay
Type: toxicity, cell-based
experimental-parameters: chlorocebus aethiops, read-out: LD50
List of CC50 at 48 h values.
Give the quantity in µM, number only.

Use these answered entries as a reference point.
{"compound": "CC1(C)CC[C@]2(C(=O)OCc3cccc([N+](=O)[O-])c3)CC[C@]3(C)C(=CC[C@@H]4[C@@]5(C)CC[C@H](O)[C@@](C)(CO)[C@@H]5CC[C@]43C)[C@@H]2C1", "CC50 at 48 h [µM]": 314}
{"compound": "CC1(C)CC[C@]2(C(=O)O)CC[C@]3(C)C(=CC[C@@H]4[C@@]5(C)CC[C@H](O)[C@@](C)(CO)[C@@H]5CC[C@]43C)[C@@H]2C1 [HEDERAGENIN]", "CC50 at 48 h [µM]": 57}

Please find the next compound below.
What does the record list as CC50 at 48 h for CC1(C)CC[C@]2(C(=O)OCc3cn(Cc4ccccc4[N+](=O)[O-])nn3)CC[C@]3(C)C(=CC[C@@H]4[C@@]5(C)CC[C@H](O)[C@@](C)(CO)[C@@H]5CC[C@]43C)[C@@H]2C1 ?
15
